Subject Of Test: human RIP1 kinase domain (2-375) (Homo sapiens (Human), UniProt Q13546)
Sequence (Q13546 2-375): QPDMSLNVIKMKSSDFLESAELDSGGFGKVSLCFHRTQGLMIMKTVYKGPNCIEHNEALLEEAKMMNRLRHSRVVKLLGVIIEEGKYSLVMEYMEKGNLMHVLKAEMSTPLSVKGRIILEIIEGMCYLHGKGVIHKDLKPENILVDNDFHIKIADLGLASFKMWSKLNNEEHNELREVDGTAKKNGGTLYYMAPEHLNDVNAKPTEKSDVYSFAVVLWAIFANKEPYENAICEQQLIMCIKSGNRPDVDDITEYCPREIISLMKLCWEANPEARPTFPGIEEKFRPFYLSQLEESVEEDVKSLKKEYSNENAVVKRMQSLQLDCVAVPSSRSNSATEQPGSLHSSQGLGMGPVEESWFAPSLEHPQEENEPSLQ
Test Description: biochemical
Format: biochemical
Test Settings: tight-binding apparent inhibition constant; human RIP1 kinase domain (2-375) 50 nM, 50 uM ATP, 2 hours; read-out: Ki
pKi: −log10 of the molar value.
Reported pKi values follow for various molecules

Molecule	Subject Of Test	pKi
CN1C(=O)[C@@H](NC(=O)c2nc3n(n2)[C@@H](c2ccccc2)CC3)COc2ccccc21 [Example 623]	human RIP1 kinase domain (2-375) (Homo sapiens (Human), UniProt Q13546)	8.47
Cc1cc2n(n1)CC[C@H](NC(=O)c1ncn(C[C@H]3C[C@H](C)C3)n1)C(=O)N2C [Example 498]	human RIP1 kinase domain (2-375) (Homo sapiens (Human), UniProt Q13546)	6.40
Cc1cc2n(n1)CC[C@H](NC(=O)c1nc3n(n1)[C@H](c1ccccc1)CC3)C(=O)N2C (single isomer, unassigned) [Example 610]	human RIP1 kinase domain (2-375) (Homo sapiens (Human), UniProt Q13546)	6.04
CN1C(=O)[C@@H](NC(=O)c2nc3n(n2)[C@H](C(F)(F)F)CC3)CCn2nccc21 [Example 344]	human RIP1 kinase domain (2-375) (Homo sapiens (Human), UniProt Q13546)	6.65
CN1C(=O)[C@@H](NC(=O)c2ncn(Cc3ccccc3)n2)CC[C@@H]2[C@H]1C2(F)F (single isomer, unassigned) [Example 364]	human RIP1 kinase domain (2-375) (Homo sapiens (Human), UniProt Q13546)	6.35
CN1C(=O)[C@@H](NC(=O)c2nc3n(n2)[C@H](c2ccccc2F)CC3)CCn2nccc21 [Example 466]	human RIP1 kinase domain (2-375) (Homo sapiens (Human), UniProt Q13546)	6.10
Cc1cc2n(n1)CC[C@H](NC(=O)c1ncn(CC3CCC(F)(F)C3)n1)C(=O)N2C (stereo partly shown) [Example 569]	human RIP1 kinase domain (2-375) (Homo sapiens (Human), UniProt Q13546)	6.24
